# Test system: THP-1 cells conditioned with Chlamydia pneumoniae
# assayMethodText: Oxidant activity (ethylene production from KMB, gas liquid chromatography) of THP-1 cells conditioned with Chlamydia pneumoniae, then stimulated by PMA
# Format: cell-based, human
# details: drug added at cell conditioning with Chlamydia (pre-incubation 19 hours), then PMA 10^−7 M
property: effect on oxidant activity / oxidation rate

> print(dat)
                        chemicalstructure        observedvalue
1  CC(=O)c1ccc2c(c1)N(CCCN(C)C)c1ccccc1S2  little or no effect
2                     COc1cc(C(C)=O)ccc1O  little or no effect
